Tested on: SF-268
runDescription: NCI tumour cell line growth inhibition, 48 h
The source made the active and inactive calls. Cut-off read from the data, not from the text of the source: active = GI50 up to about 1.1 µM and inactive = higher.
Collected GI50 values appear next to each entry.

compound: CN(C)CCCNc1cnc2cc3ccccc3cc2n1
GI50: 23.8 µM (inactive)
//
compound: O=C(N/C(=C\c1cccc([N+](=O)[O-])c1)c1nc2ccccc2[nH]1)c1ccccc1
GI50: 45.3 µM (inactive)
//
compound: CC(=O)Nn1cnc(C(=N)C#N)c1N
GI50: > 100 µM (inactive)
//
compound: CC(=O)Nc1ccc(C2=N/C(=C\c3ccc(Cl)c(Cl)c3)C(=O)O2)cc1
GI50: > 100 µM (inactive)
//
compound: COc1cc(/C=C2\C(=O)N(C(=O)Cc3ccccc3)N=C2C)cc(OC)c1OC
GI50: > 100 µM (inactive)
//
compound: CC(C(=O)N1C(=O)N(C(=O)[C@H](C)C(O)c2ccccc2)[C@H](c2ccccc2)[C@H]1c1ccccc1)[C@@H](O)c1ccccc1 (stereo not given in full)
GI50: 38.2 µM (inactive)
//
compound: COc1ccc2c(c1O)[C@@]13CCCC=C1[C@@H](C2)N(C)CC3
GI50: > 100 µM (inactive)
//
compound: CC1(C)Cc2ccccc2C(C)(Cl)C(=O)N1 (stereo not given)
GI50: > 10 µM (inactive)
//
compound: Cc1ccc(O)c(Cc2nc3ccccc3nc2-c2cccc(Br)c2)c1
GI50: > 100 µM (inactive)
//
compound: COc1ccc(NC(=O)/C(O)=C/C(=O)c2ccccc2)cc1
GI50: > 10 µM (inactive)

###

Tested on: M14
runDescription: NCI tumour cell line growth inhibition, 48 h
Active and inactive are the calls of the source. No stated cut-off is given here; in the data, active = GI50 up to about 1.1 µM and inactive = higher.
# GI50 per entry

molecule: O=C1CSC(c2c[nH]c3ccccc23)N1c1cccc(Cl)c1 (stereo not drawn)
GI50: 49.1 µM (inactive)

molecule: CC(C)CCc1c(Cl)nc(Cl)nc1Cl
GI50: 3.61 µM (inactive)

molecule: CCN(CC)CC/N=c1\c2cc(OC)ccc2[nH]c2c([N+](=O)[O-])ccc(NCCN(CC)CC)c12
GI50: 2.88 µM (inactive)

molecule: Cc1sc2ncnc(NCCc3ccccc3)c2c1C
GI50: 18.1 µM (inactive)

molecule: O=c1sc2c(s1)-c1sc(=O)sc1SS2
GI50: 48.2 µM (inactive)

molecule: CC(=O)OCC1OC(n2c(-c3ccc(N)cc3)cc(-c3ccco3)c(C#N)c2=O)C(OC(C)=O)C(OC(C)=O)C1OC(C)=O (stereo not drawn)
GI50: > 50 µM (inactive)

molecule: Nc1cccc(OCC2CCCN3CCCCC23)c1 (stereo not drawn)
GI50: 20 µM (inactive)

molecule: C#CCOCn1cnc2c(Cl)ncnc21
GI50: > 100 µM (inactive)

###

In this section, each of the molecules is paired with its reported GI50.
System: T47D
runDescription: NCI tumour cell line growth inhibition, 48 h
Active and inactive are the calls of the source. Cut-off read from the data, not from the text of the source: active = GI50 up to about 1.1 µM and inactive = higher.

molecule: CCOC(=O)C(Cc1ccc(N(CCCl)CCCl)cc1)NC(=O)C(Cc1ccccc1)NC=O (stereo unspecified)
GI50: 0.092 µM (active)

molecule: COc1ccc(/C=C/c2ccnc3ccccc23)cc1OC
GI50: 11.7 µM (inactive)

molecule: CC(NC(=O)c1c(O)[nH]c(=S)[nH]c1=O)c1ccc([N+](=O)[O-])cc1 (stereo unspecified)
GI50: 37.2 µM (inactive)

molecule: COC(=O)C(C)(Cc1ccc2c(c1)nnn2C(C)=O)NC(C)=O (stereo unspecified)
GI50: > 100 µM (inactive)

molecule: CCCCCCCCCCCCCCCC(=O)OC1C(O)C(O)C(O)C(O)C12CO2 (stereo unspecified)
GI50: > 100 µM (inactive)

molecule: COC(=O)C1C/C(=C/N(C)C)C(=S)N1 (stereo unspecified)
GI50: > 100 µM (inactive)

molecule: Cc1cc2nc3c(C)c4ccccc4c(C)n3c2cc1C
GI50: > 10 µM (inactive)

molecule: CSc1c(C#N)c(N)n2c1C(=O)N(c1ccccc1)C2=S
GI50: 52.6 µM (inactive)

molecule: COC1=C(OC)C23CCc4ccc(OC)c(O)c4C2(CCN3)CC1=O (stereo unspecified)
GI50: > 100 µM (inactive)

molecule: Cc1nc(C)c(N2CCN(S(N)(=O)=O)CC2)c(O)n1
GI50: > 100 µM (inactive)

molecule: Cc1ccc(O)c(Cc2nc3ccccc3nc2-c2cccc(Br)c2)c1
GI50: > 100 µM (inactive)

###

Measured GI50 of individual entries
Tested on: MDA-N
runDescription: NCI tumour cell line growth inhibition, 48 h
Active and inactive are the calls of the source. Rule as the data show it: active = GI50 up to about 1.1 µM and inactive = higher.
measuredEndpoint: GI50

molecule: C1CCNCC1.S=C(S)N1CCCCC1
observedMeasurement: 13.1 µM (inactive)

molecule: CCO/N=C(/CC)c1ccc(Br)s1
observedMeasurement: > 100 µM (inactive)

molecule: Cc1ccc(O)c(Cc2nc3ccccc3nc2-c2cccc(Br)c2)c1
observedMeasurement: > 100 µM (inactive)

molecule: O=c1[nH]c2nc3ccccc3c(=O)n2/c1=C/c1ccco1
observedMeasurement: > 100 µM (inactive)

molecule: COc1cc(C2SCCCCCCCCCCSC(c3ccc(O)c(OC)c3)SCCCCCCCCCCS2)ccc1O (centres undefined)
observedMeasurement: > 100 µM (inactive)

molecule: COc1ccc2cc(CNCCCCCCNC(=O)Nc3cccc4ccccc34)ccc2c1
observedMeasurement: > 100 µM (inactive)

molecule: OC1CSc2nc3ccccc3n2C1 (centres undefined)
observedMeasurement: > 100 µM (inactive)

molecule: C=C1C(=O)OC2C1CCC(C)C1(O)C=CC(=O)C21C (centres undefined)
observedMeasurement: 6.85 µM (inactive)

molecule: Cc1ncc([N+](=O)[O-])n1CCNC(=O)CCn1ccnc1[N+](=O)[O-]
observedMeasurement: > 100 µM (inactive)

molecule: Nc1cccc(OCC2CCCN3CCCCC23)c1 (centres undefined)
observedMeasurement: 16 µM (inactive)

molecule: NNC(=O)COc1nc(-c2cccs2)nc2ccc(I)cc12
observedMeasurement: 31.7 µM (inactive)

molecule: Oc1ncc(N(CCCl)CCCl)c(O)n1
observedMeasurement: 60.4 µM (inactive)

molecule: CCOC(=O)C(=O)/C(=C/n1c(=S)[nH]c2ccc([N+](=O)[O-])cc21)C(=O)OCC
observedMeasurement: > 100 µM (inactive)

molecule: CCCCN(CCCC)CC(O)c1cc(-c2ccc(Cl)c(Cl)c2)nc2c(Cl)cc(Cl)cc12 (centres undefined)
observedMeasurement: > 100 µM (inactive)

molecule: O=C(c1ccc(Cl)cc1)N1N=C(c2ccc(Cl)cc2)CC1(O)c1cc(F)c(Cl)cc1Cl (centres undefined)
observedMeasurement: 13.6 µM (inactive)

molecule: O=c1[nH]c(=O)n(C/C=C/CO)nc1Br
observedMeasurement: > 100 µM (inactive)

molecule: Cc1ccnc2c1c(=O)c1ccccc1n2C
observedMeasurement: 34.3 µM (inactive)

molecule: O=S(=O)(O)C(c1ccccc1)C(O)c1ccccc1 (centres undefined)
observedMeasurement: > 100 µM (inactive)

molecule: COc1ccc(/C=C2\N=C3NC(=O)C(N4CCOCC4)=C(N)N3C2=O)cc1
observedMeasurement: > 100 µM (inactive)

molecule: CC(=O)Nn1cnc(C(=N)C#N)c1N
observedMeasurement: > 100 µM (inactive)

molecule: NC(CCOCCP(=O)(O)CCC1C=CC=CC1)C(=O)O (centres undefined)
observedMeasurement: > 100 µM (inactive)

molecule: O=C(O)c1ccccc1/C=C1/Cc2ccc3c(c2C1=O)CCC3
observedMeasurement: 29.6 µM (inactive)

molecule: CCN(CC)C(=S)SS(=O)(=O)c1ccc(N)cc1
observedMeasurement: 70.5 µM (inactive)

molecule: COC(=O)C1C/C(=C/N(C)C)C(=S)N1 (centres undefined)
observedMeasurement: > 100 µM (inactive)

###

Catalogue of GI50 readings, one per entry.
Tested on: UACC-257
runDescription: NCI tumour cell line growth inhibition, 48 h
Activity calls are given as the source filed them. Rule as the data show it: active = GI50 up to about 1.1 µM and inactive = higher.

compound: CC(=O)CC(=O)Nc1ccc2ccccc2c1
GI50: 51.9 µM (inactive)
//
compound: O=C1c2ccccc2-c2c1c(-c1ccc([N+](=O)[O-])cc1)nc1ccc3ccccc3c21
GI50: > 100 µM (inactive)
//
compound: COc1ccc(/C=C/c2ccnc3ccccc23)cc1OC
GI50: 21.2 µM (inactive)
//
compound: CC(C)C(/C=C/c1ccc(Br)cc1)=N\NC(N)=O
GI50: > 100 µM (inactive)
//
compound: Nc1ncnc2c1ncn2CCOC(c1ccccc1)P(=O)(O)O (stereo unspecified)
GI50: > 100 µM (inactive)
//
compound: CCN(CC)C(=O)c1c(Cl)cc(N(CC)CC)oc1=O
GI50: > 100 µM (inactive)

###

System: MDA-N
runDescription: NCI tumour cell line growth inhibition, 48 h
Calls of active or inactive are those of the source. Rule as the data show it: active = GI50 up to about 1.1 µM and inactive = higher. Starred links: 1 amine or outer side, 2 acyl side, 3 side chain; linkers in the order of their positions; H or OH if unused. Positions of bridges follow the written chain, without caps; N, C: chain ends. Non-standard residues stand in square brackets, D forms with d. Residues, ends and D or L forms follow the SMILES beside them. ξ: configuration not given here. *: point of attachment. γ4hArg(2R,3R-(OH)2) = N=C(N)NCCC[C@H](N[*:1])[C@@H](O)[C@@H](O)C(=O)[*:2]; Gln(3S,4R-Me2) = C[C@H]([C@H](N)C(=O)O)[C@@H](C)C(N)=O; X50 = CC(C)C[C@H](C)[C@@H](O)[C@@H](C)C(=O)*; X51 = COC(c1ccc(O)cc1)C(N[*:1])C(=O)[*:2]; NMeQ = CN[C@@H](CCC(N)=O)C(=O)O; Thr(3ξ) = CC(O)[C@H](N)C(=O)O; NMeA = CN[C@@H](C)C(=O)O
Outcomes: active, inactive

molecule: CCOC(=O)c1c(C)n(Cc2ccccc2)c2c1cc(O)c1[nH]c3c(c12)CCCC3
groupLabel: inactive
//
molecule: COC(c1ccc(O)cc1)C1NC(=O)[C@H](CCC(N)=O)N(C)C(=O)[C@H](CC(C)C)NC(=O)[C@@H](CCCN=C(N)N)NC(=O)[C@H](C(C)O)NC(=O)[C@@H](NC(=O)[C@@H](NC(=O)[C@H](O)[C@H](O)[C@H](CCCN=C(N)N)NC(=O)[C@H](C)NC(=O)[C@H](C)[C@H](O)[C@@H](C)CC(C)C)[C@@H](C)[C@@H](C)C(N)=O)[C@@H](C)OC(=O)[C@H](C)N(C)C1=O (stereo partly drawn) (X50-A[γ4hArg(2R,3R-(OH)2)][Gln(3S,4R-Me2)]T[Thr(3ξ)][dR]L[NMeQ][X51][NMeA]; ester 4-C)
groupLabel: active
//
molecule: O=C1c2ccccc2-c2c1c(-c1ccc([N+](=O)[O-])cc1)nc1ccc3ccccc3c21
groupLabel: inactive
//
molecule: Cc1ccc2c(c1)C(=O)c1ccc(C)nc1C2=O
groupLabel: inactive
//
molecule: COc1ccc(OC)c(C2CCc3cnc4nc(N)nc(N)c4c3C2)c1 (stereo unspecified)
groupLabel: inactive
//
molecule: C=C1CN(C(=O)c2cc3cc(OC)c(OC)c(OC)c3[nH]2)c2cc([N+](=O)[O-])ccc21
groupLabel: inactive
